# System: T1, Cynomolgus monkey PDGF-BB (cynomolgus monkey, UniProt P01127 82-190 (human entry), limits assumed)
# T1 chain: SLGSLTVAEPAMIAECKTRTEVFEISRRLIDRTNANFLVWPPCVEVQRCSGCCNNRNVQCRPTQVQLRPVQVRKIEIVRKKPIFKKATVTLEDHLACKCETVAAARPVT
# Procedure Text: cell-based or functional assay
Field: cynoPDGF-BB NIH-3T3 Proliferation IC50. Provide a value for each of the binders that follow.
One number for each entry, in nM.

Please review the entries below; each comes with its answer.
INSERT INTO assay_data (binder, assay_value) VALUES
  ('CL-33675-IgG (antibody, V domains shown) VH: EVTLRESGPALVKPTQTLTLTCTFSGFSLSTYGMGVGWIRQPPGKALEWLANIWWDDDKYYNPSLKNRLTISKDTSKNQVVLTMTNMDPVDTATYYCARIESSGPKYSFDYWGQGTMVTVSS VL: EIVLTQSPGTLSLSPGERATLSCRASSGSIWYSFVSWYQQKPGQAPRLLIYADDQRASGIPDRFSGSGSGTDFTLTISRLEPEDFAVYYCQSYGINIDVVFGGGTKVEIK', 0.024),
  ('CL-33578-IgG (antibody, V domains shown) VH: EVTLRESGPALVKPTQTLTLTCTFSGFSLSTYGMGVGWIRQPPGKALEWLANIWWDDDKYYNPSLKNRLTISKDTSKNQVVLTMTNMDPVDTATYYCARIQSGWTNYEFDYWGQGTMVTVSS VL: EIVLTQSPGTLSLSPGERATLSCERSSGDIGDSYVSWYQQKPGQAPRLVIYADDQRPSGIPDRFSGSGSGTDFTLTISRLEPEDFAVYYCQSYDINIDIVFGGGTKVEIK', 0.023);

Next up:
# input binder: CL-33855-IgG (antibody, V domains shown) VH: EVTLRESGPALVKPTQTLTLTCTFSGFSLSTYGMGVGWIRQPPGKALEWLANIWWDDDKYYNPSLKNRLTISKDTSKNQVVLTMTNMDPVDTATYYCARIETFGPKYSFDYWGQGTMVTVSS VL: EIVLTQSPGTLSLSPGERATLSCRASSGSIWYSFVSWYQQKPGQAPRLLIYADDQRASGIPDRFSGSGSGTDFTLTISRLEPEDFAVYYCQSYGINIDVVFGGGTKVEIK ; wanted: its cynoPDGF-BB NIH-3T3 Proliferation IC50
0.019
